- Test Description: A CellTox Green Cytotoxicity Assay to monitor cytotoxicity in HEK293 cells - 8 hour (AID 1224884); further: nearly all actives have a fitted effect of over 35% in size
- Test Settings: CellTox Green fluorescence; series mostly up to 76.8 µM
Results filed as inconclusive are left out. The source made the active and inactive calls. The call rests on the fitted dose curve; in most records, active means well fitted activation curve with a large enough effect in the repeat runs; inconclusive means weak or mixed curves; inactive means flat fitted curve, though single readings scatter.
Answer with one of the outcomes active, inactive

*Q* For `N#CCC#N` , which call appears in the assay record?
*A* inactive

*Q* For `II` , which call appears in the assay record?
*A* active

*Q* For `CCOC(=O)CBr` , which call appears in the assay record?
*A* inactive

*Q* For `ClC=C(Cl)Cl` , which call appears in the assay record?
*A* inactive

*Q* For `Oc1ccc(Cl)c(Cl)c1Cl` , which call appears in the assay record?
*A* inactive

*Q* For `CCCCNP(N)(N)=S` , which call appears in the assay record?
*A* inactive

*Q* For `Cl/C=C\Cl` , which call appears in the assay record?
*A* inactive

Numbers sourced from PubChem BioAssay (Tox21).
